# system-under-test: Escherichia coli MRE600 30S ribosomal subunits (E. coli)
# experiment-summary: ITC
measured-quantity: Kd
For clarity, give the value followed by its unit.

Exercise: Which value of Kd has been reported for initiation factor IF1 (natural protein) MAKEDNIEMQGTVLETLPNTMFRVELENGHVVTAHISGKMRKNYIRILTGDKVTVELTPYDLSKGRIVFRSR in the records?
Key: 806 nM

Provenance of the data: paper doi:10.1101/2021.05.24.445485
